Listed below are compounds with IC50 for Stromelysin-1 (Homo sapiens), each taken from published literature.

[
  {
    "compound": "O=C(CC(CCn1nnc2ccccc2c1=O)C(=O)O)c1cc2cc(OCC3CCOCC3)ccc2o1 (racemic)",
    "IC50": "> 40 µM"
  }
]

[Q] Specify measured IC50 for O=C(NO)[C@H]1CN(C(=O)C(=O)N2CCCCC2)CCN1S(=O)(=O)c1cc(F)c(Oc2ccc(Cl)cc2)c(F)c1 .
[A] 0.05 to 1 µM

[Q] Specify measured IC50 for COc1cc(C)cc(COc2ccc(S(=O)(=O)CC(C=C3CCC4(CC3)OCCO4)N(O)C=O)cc2)c1 (stereo not drawn) .
[A] > 100 µM

----------
pIC50: −log10 of the molar value.
Listed below are compounds with pIC50 for Stromelysin-1 (Homo sapiens, UniProt P08254), each taken from published literature.

[
  {
    "structure": "Cc1cc(C2CCN(S(=O)(=O)C3(C(=O)NO)CCOCC3)CC2)ccc1-c1cccc(OC[C@@H](O)CO)n1",
    "result": "> 8.00"
  },
  {
    "structure": "O=C(NO)[C@H]1CN(S(=O)(=O)CCN2CCOCC2)CCN1S(=O)(=O)c1cc(F)c(Oc2ccc(Cl)cc2)c(F)c1",
    "result": "4.70 to 6.00"
  },
  {
    "structure": "CCCCCCC(=O)N1CCN(S(=O)(=O)c2cc(F)c(Oc3ccc(Cl)cc3)c(F)c2)[C@@H](C(=O)NO)C1",
    "result": "6.00 to 7.30"
  },
  {
    "structure": "O=C(NO)[C@H]1CN(S(=O)(=O)Cc2ccncc2)CCN1S(=O)(=O)c1cc(F)c(Oc2ccc(Cl)cc2)c(F)c1",
    "result": "6.00 to 7.30"
  },
  {
    "structure": "O=C(NO)[C@H]1CN(C(=O)C(=O)N2CCOCC2)CCN1S(=O)(=O)c1cc(F)c(Oc2ccc(Cl)cc2)c(F)c1",
    "result": "6.00 to 7.30"
  }
]

[Q] Jot down pIC50 (Stromelysin-1 (Homo sapiens, UniProt P08254)) of COCCOC(=O)N1CCN(S(=O)(=O)c2cc(F)c(Oc3ccc(F)cc3)c(F)c2)[C@@H](C(=O)NO)C1 .
[A] 4.70 to 6.00

[Q] Jot down pIC50 (Stromelysin-1 (Homo sapiens, UniProt P08254)) of COCCOC(=O)N1CCN(S(=O)(=O)c2cc(F)c(Oc3ccc(Cl)cc3)c(F)c2)[C@@H](C(=O)NO)C1 .
[A] 6.00 to 7.30

[Q] Jot down pIC50 (Stromelysin-1 (Homo sapiens, UniProt P08254)) of O=C(NO)[C@H]1CN(C(=O)c2ccc(-c3ccccc3)cc2)CCN1S(=O)(=O)c1cc(F)c(Oc2ccc(Cl)cc2)c(F)c1 .
[A] 4.70 to 6.00
